# MIC values compiled below
System: Staphylococcus aureus
Assay: Antibacterial activity against methicillin-resistant Staphylococcus aureus USA300 SF8300 assessed as growth inhibition after 18 to 20 hrs by microdilution assay
Type: functional
Respond with the bare value in µM.

>>> reading("CC(C)=CCc1c2c(c(O)c3c1O[C@@]14C(=C[C@H]5CC1C(C)(C)O[C@]4(C/C=C(/C)C(=O)N1CCC[C@H]1C(=O)O)C5=O)C3=O)C=CC(C)(C)O2")
100
>>> reading("CC(C)=CCC[C@]1(C)C=Cc2c(O)c3c(c(CC=C(C)C)c2O1)O[C@]12C(=C[C@@H]4C[C@H]1C(C)(C)O[C@@]2(C/C=C(/C)C(=O)O)C4=O)C3=O")
25

// moving on: another record for MIC
Please report the recorded MIC for `CC(C)=CCc1c2c(c(O)c3c1O[C@@]14C(=C[C@H]5CC1C(C)(C)O[C@]4(C/C=C(/C)C(=O)O)C5=O)C3=O)C=CC(C)(C)O2` .
12.5
